Item-by-item account of TGI
- Test system: UO-31 renal
- assay_details: NCI tumour cell line growth inhibition, 48 h

compound | TGI
COC1CC(N)C(O)C(C)O1 (centres undefined) | > 100 µM
COc1ccc(-c2c3c(nc4n[nH]c(-c5ccc(Cl)cc5)c24)-c2ccccc2C(=O)C3=O)cc1 | 2.9 µM

Ask: For CC(=O)/C=C/c1ccc(OCc2ccc(Cl)cc2)cc1 , what is its reported TGI?
Reply: > 1000 µM

Ask: Request the reported TGI associated with O=C(/C(=C\I)c1ccccc1)c1ccccc1
Reply: 20.2 µM

Ask: Dear colleague, I am looking for the recorded TGI of the following compound: CC(=O)OC1=CC2(OC(C)=O)CC(C)(C)C1C1C(=O)C=CC(=O)C12 (centres undefined)
Reply: > 100 µM

Ask: Give its TGI value. Item: O=C1CSC(c2cccc(Cl)c2)N1c1ccc(-c2ccc(-n3c(-c4ccccc4)nc4ccccc4c3=O)cc2)cc1 (centres undefined)
Reply: 84.1 µM

Ask: Data request, read-out TGI, for Cc1cc(O)c(C2=NN(c3ccc(S(N)(=O)=O)cc3)C(/C=C/c3ccccc3)C2)cc1Cl (centres undefined)
Reply: 34.9 µM

Ask: Reported TGI for CCCCCCNCc1cc(C(C)(C)C)cc(CNCCCCCC)c1O : what is it?
Reply: 2.8 µM

Ask: Requested field: TGI. Item: CC(=O)NC1=NC(=O)/C(=C/c2ccc(/C=C3/C(=O)N=C(NC(C)=O)N3C)cc2)N1C
Reply: > 100 µM

Ask: Which TGI value belongs to O=C(/C=C(\C(=O)c1cccs1)c1cccs1)c1ccc(C(=O)/C=C(\C(=O)c2cccs2)c2cccs2)cc1 ?
Reply: > 100 µM

Ask: Would you kindly share the measured TGI for COC(=O)[C@H](Cc1cn(C)cn1)NC(=O)[C@H](C)NC(=O)Nc1cc(C(F)(F)F)cc(C(F)(F)F)c1 ?
Reply: > 10 µM

Ask: Item S=c1sc2c(Cl)nc(-c3cccnc3)nc2n1-c1ccccc1 has what recorded TGI?
Reply: 3.33 µM

Ask: Reported TGI, compound COC(=O)C1OC(O[C@H]2CC[C@]3(C)[C@H]4CC=C5[C@@H]6CC(C)(C)CC[C@]6(C(=O)OC6OCC(O)C(O)C6OC6OC(C)C(OC7OCC(O)C(O)C7O)C(OC7OCC(O)(CO)C7O)C6O)[C@H](O)C[C@@]5(C)[C@]4(C)CC[C@H]3C2(C)C)C(O)C(O)C1O (some centres undefined) : ____
Reply: 4.62 µM

Ask: Using the record for COc1cccc(SSc2cccc(OC)c2C(=O)O)c1C(=O)O , report its TGI.
Reply: > 100 µM

Ask: Report TGI for CCn1c2ccccc2c2c(-c3ccccc3)cc3c(c21)C(=O)N(c1ccccc1)C3=O please.
Reply: > 100 µM

Ask: # input compound: Cn1cc(C(=O)c2ccccc2)cc(C(=O)c2ccccc2)c1=O ; wanted: its TGI
Reply: > 100 µM

Ask: GET /values?readout=TGI&item= Cc1c2c(n(CC(c3ccccc3)c3ccccc3)c1C)NN=C(C#N)S2(=O)=O
Reply: > 100 µM

Ask: So what's the measured TGI for this one? [N-]=[N+]=CC(=O)OCCCCl
Reply: > 100 µM

Ask: I have this compound here, CSc1nc(N)c2c(-c3ccccc3)c3c(nc2n1)CCCC3 , and I need its recorded TGI.
Reply: > 100 µM

====

- System: SN12C renal
- assay_details: NCI tumour cell line growth inhibition, 48 h; in the data active = GI50 below about 0.43 µM; inactive = the rest
The reply should name one outcome from active, inactive

molecule | class_name
CN(CCC(=O)/C(=C\c1ccccc1)c1ccc(Cl)cc1)Cc1ccccc1 | inactive

Ask: Could you check what this test reported for Cc1cccc2c3c(sc12)C(c1ccc(F)cc1)C(C#N)=C(N)O3 (stereo not drawn) ?
Reply: active

Ask: Check the results log: what was the call for NC1(Cc2ccc(Cl)cc2)CCN(c2ncnc3[nH]ccc23)CC1 ?
Reply: inactive

Ask: I would be grateful if you could indicate the recorded call for CC(=O)O[C@H]1CC[C@@]2(C)C(=C/C(=N/OCCN3CCCC3)[C@H]3[C@@H]4CC[C@H](OC(C)=O)[C@@]4(C)CC[C@@H]32)C1 .
Reply: inactive

Ask: Dear colleague, could you share the recorded outcome for CCCCCCCCCCCCCC[n+]1ccc(C)cc1 when you have a moment?
Reply: inactive

Ask: Check the results log: what was the call for Cc1cc(O)c(C2=NN(c3ccc(S(N)(=O)=O)cc3)C(/C=C/c3ccccc3)C2)cc1Cl (stereo not drawn) ?
Reply: inactive

Ask: # outcome recorded in this test, key = CCSC[C@@H]1C[C@](O)(c2ccc(F)cc2)[C@@H](c2ccc(F)cc2)O1
Reply: inactive

====

- System: KM20L2 colon
- assay_details: NCI tumour cell line growth inhibition, 48 h
value_type: TGI (µM)
# number only, unit µM dropped from output

Consider the reported TGI for these molecules:
molecule | TGI (µM)
COc1ccc(C(=O)C#Cc2c[nH]c(=O)[nH]c2=O)cc1 | 22.8
CC12CCC(CC1)C(C)(C)O2 | 116

Please turn your attention to the following entry.
Ask: Item under review: C=C1C(=O)OC2CC(C)C3C4OC4C(O)C3(C)C(O)C12 (stereo not given) . Reported TGI?
Reply: 42.8

====

- System: UACC-62 melanoma
- assay_details: NCI tumour cell line growth inhibition, 48 h
// GI50 lookup, one value per entry

// known answers, use as guide
compound | GI50
COc1ccc(-c2csc(NC(=O)CN3CCN(c4cc5c(cc4F)c(=O)c(C(=O)O)cn5C4CC4)CC3)n2)cc1 | 4.18 µM
CC1(C)Cc2c(Br)c(Br)c(Br)c(OCC(O)CN3CCN(c4ccccn4)CC3)c2O1 (centres undefined) | 14.1 µM
Cc1cccc2c3c(sc12)C(c1ccc(F)cc1)C(C#N)=C(N)O3 (centres undefined) | 0.0433 µM

Please find the next compound below.
Ask: Request the reported GI50 associated with CCCCOC1OC(COC(=O)C(C)C)C(OC(=O)C(C)C)C(O)C1OC1OC(C)C(OC(=O)CCC)C(OC(=O)C(C)C)C1O (centres undefined)
Reply: 12.3 µM

====

- Test system: UACC-257 melanoma
- assay_details: NCI tumour cell line growth inhibition, 48 h
Quick reference for TGI among some molecules

Please review the entries below; each comes with its answer.
molecule | TGI
Cc1ccc(-n2nnnc2-c2cnc(N3CCOCC3)nc2-c2cccc(C(F)(F)F)c2)cc1 | > 30.5 µM
O=C1/C(=C/c2ccc(O)cc2)COc2ccc(O)c(O)c21 | > 100 µM
CCOC(=O)C1(C#N)CC1 | > 100 µM
COc1cc2ccnc3c(=C(SC)SC)c(=O)c(c1OC)c23 | 30.8 µM
Cc1[nH]c2cc(F)ccc2c1-c1nc2c3cccnc3c3ncccc3c2[nH]1 | 0.833 µM

Continue with the next molecule.
Ask: Requested field: TGI. Item: CC(=O)OCC1OC(n2c(Br)nc3c2c(=O)n(C)c(=O)n3C)C(OC(C)=O)C1OC(C)=O (stereo unspecified)
Reply: > 100 µM

====

- Test system: ACHN renal
- assay_details: NCI tumour cell line growth inhibition, 48 h; in the data active = GI50 below about 0.43 µM; inactive = the rest
Please reply with one of these outcomes: class 1 for active, class 0 for inactive

Worked cases, answers included:
molecule | class_name
COC(=O)C(C(=O)OC)C(Br)C(Br)C(Br)c1ccccc1 (stereo not drawn) | class 0
COc1cnc2c(c1)C(=O)c1c-2n(CCCN2CCC(O)CC2)c(=O)c2cc(Cl)ccc12 | class 1

Ask: Outcome? CCCCNc1ccc(Nc2ccccc2)cc1
Reply: class 0

====

- Test system: NCI-H460 lung
- assay_details: NCI tumour cell line growth inhibition, 48 h
value_type: TGI

molecule | TGI
N#Cc1cccc(C=NC23CC4CC(CC(C4)C2)C3)c1 | > 100 µM
COc1cc2c(/C=C3/C(=O)Nc4ccc(Cl)cc43)c(Cl)[nH]c2cc1C | 13.9 µM
c1ccc2c(c1)cc1n2CCc2c-1[nH]c1ccccc21 | > 10 µM

Ask: Value lookup for TGI; key = O=C(SCc1cccc2ccccc12)c1ccc(Cl)cc1
Reply: > 100 µM

Ask: So what does the record say about TGI for Cc1nc2cc(Nc3ccccc3C(=O)O)ccc2s1 ?
Reply: > 100 µM

Ask: Please look up its TGI: CC(C)(C)OC(=O)NCc1cccc(N=C=S)c1
Reply: 46.1 µM

Ask: // returns reported TGI for input CN(CCNC(=O)c1c[nH]c2c1Cc1ccccc1-2)CCNC(=O)c1c[nH]c2c1Cc1ccccc1-2
Reply: > 100 µM

Ask: What does the record list as TGI for O=c1[nH]c(=O)n(COCc2ccccc2)cc1Nc1ccc(Br)cc1 ?
Reply: > 100 µM

Ask: Consider the molecule O=C(CC1C=Cc2ccccc2N1C(=O)c1ccccc1)c1ccccc1 (stereo unspecified) and give its measured TGI.
Reply: > 100 µM

Ask: Value lookup for TGI; key = CC(=O)OC1=CC2(OC(C)=O)CC(C)(C)C1C1C(=O)C=CC(=O)C12 (stereo unspecified)
Reply: > 100 µM

Ask: For the molecule COc1ccccc1C(=O)NCC1CCCN2CCCCC12 (stereo unspecified) , what TGI is on record?
Reply: > 100 µM

Data provenance is PubChem BioAssay (NCI).
